- target.under.test: N-type calcium channel (Homo sapiens)
- Construct: expressed in transfected cells
- Sequence (Q00975 whole entry): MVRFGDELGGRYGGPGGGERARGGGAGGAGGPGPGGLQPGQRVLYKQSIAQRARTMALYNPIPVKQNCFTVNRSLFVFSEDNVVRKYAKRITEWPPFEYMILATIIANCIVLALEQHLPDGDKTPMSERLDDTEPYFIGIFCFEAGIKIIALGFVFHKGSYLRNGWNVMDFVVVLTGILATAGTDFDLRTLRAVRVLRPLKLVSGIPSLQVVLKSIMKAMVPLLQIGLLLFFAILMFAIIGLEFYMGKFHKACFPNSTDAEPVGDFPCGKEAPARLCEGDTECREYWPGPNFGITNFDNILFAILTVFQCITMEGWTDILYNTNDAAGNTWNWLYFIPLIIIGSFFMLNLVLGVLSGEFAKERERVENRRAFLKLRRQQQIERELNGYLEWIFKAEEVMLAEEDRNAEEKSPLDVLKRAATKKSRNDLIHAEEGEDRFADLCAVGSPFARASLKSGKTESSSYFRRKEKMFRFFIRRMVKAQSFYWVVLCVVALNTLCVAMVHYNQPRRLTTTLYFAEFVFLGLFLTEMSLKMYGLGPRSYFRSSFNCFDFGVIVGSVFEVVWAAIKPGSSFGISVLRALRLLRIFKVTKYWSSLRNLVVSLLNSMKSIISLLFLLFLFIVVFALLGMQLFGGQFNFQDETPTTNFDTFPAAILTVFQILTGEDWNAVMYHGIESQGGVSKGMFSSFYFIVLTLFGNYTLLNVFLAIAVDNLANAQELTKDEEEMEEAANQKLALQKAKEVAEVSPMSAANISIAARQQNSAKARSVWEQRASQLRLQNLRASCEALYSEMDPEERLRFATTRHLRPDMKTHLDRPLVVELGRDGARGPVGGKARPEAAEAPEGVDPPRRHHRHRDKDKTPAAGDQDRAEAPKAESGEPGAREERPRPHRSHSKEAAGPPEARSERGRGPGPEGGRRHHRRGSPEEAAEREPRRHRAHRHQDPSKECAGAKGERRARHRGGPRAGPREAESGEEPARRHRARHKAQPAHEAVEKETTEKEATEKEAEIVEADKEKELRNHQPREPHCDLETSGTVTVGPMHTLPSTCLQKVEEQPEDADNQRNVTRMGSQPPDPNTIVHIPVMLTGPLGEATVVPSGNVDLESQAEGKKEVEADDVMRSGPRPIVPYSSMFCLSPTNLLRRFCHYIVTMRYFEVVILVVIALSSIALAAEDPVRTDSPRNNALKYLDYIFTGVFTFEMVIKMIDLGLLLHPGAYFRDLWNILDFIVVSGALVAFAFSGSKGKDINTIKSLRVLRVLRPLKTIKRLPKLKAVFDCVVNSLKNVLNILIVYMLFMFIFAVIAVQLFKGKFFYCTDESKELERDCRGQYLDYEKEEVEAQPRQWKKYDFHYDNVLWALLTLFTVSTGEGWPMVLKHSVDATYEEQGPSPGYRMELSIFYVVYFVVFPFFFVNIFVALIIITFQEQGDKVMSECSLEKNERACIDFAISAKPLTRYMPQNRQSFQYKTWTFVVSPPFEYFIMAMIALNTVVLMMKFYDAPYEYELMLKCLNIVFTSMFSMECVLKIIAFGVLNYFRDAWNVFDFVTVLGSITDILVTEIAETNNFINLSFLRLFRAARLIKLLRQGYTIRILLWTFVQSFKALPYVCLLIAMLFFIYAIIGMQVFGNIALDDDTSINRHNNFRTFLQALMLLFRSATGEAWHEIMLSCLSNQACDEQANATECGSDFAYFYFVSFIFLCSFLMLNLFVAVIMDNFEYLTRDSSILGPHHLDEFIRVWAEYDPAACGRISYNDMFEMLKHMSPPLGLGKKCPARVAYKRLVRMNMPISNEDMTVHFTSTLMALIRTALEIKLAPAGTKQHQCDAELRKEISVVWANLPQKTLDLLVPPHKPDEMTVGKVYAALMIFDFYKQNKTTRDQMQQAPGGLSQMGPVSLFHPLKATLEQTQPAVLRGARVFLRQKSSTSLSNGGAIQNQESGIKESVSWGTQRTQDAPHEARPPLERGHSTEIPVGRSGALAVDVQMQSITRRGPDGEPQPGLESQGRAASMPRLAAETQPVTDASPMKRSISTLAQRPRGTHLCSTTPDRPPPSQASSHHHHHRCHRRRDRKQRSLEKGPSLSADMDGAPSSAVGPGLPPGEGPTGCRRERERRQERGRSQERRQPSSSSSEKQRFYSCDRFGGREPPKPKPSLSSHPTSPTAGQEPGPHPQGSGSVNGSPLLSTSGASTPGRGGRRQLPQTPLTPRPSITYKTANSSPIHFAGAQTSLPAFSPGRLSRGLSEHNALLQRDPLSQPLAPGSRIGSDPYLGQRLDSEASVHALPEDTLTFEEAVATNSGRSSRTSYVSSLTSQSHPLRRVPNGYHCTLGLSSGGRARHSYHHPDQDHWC
- Sequence (P54284 whole entry partner): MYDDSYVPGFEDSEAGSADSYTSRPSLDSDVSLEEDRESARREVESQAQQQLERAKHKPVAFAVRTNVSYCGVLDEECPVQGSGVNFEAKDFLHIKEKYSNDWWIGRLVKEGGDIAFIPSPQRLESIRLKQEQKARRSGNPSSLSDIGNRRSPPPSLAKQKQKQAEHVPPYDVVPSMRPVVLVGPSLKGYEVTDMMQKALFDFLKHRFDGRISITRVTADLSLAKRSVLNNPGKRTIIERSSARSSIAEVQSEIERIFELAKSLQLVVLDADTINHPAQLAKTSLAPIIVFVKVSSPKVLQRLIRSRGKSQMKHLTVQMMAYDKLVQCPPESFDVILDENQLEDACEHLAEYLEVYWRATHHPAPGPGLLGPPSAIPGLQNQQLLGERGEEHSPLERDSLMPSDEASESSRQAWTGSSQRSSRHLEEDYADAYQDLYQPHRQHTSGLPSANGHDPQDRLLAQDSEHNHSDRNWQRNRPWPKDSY
- Sequence (P54289 25-956 partner limits assumed): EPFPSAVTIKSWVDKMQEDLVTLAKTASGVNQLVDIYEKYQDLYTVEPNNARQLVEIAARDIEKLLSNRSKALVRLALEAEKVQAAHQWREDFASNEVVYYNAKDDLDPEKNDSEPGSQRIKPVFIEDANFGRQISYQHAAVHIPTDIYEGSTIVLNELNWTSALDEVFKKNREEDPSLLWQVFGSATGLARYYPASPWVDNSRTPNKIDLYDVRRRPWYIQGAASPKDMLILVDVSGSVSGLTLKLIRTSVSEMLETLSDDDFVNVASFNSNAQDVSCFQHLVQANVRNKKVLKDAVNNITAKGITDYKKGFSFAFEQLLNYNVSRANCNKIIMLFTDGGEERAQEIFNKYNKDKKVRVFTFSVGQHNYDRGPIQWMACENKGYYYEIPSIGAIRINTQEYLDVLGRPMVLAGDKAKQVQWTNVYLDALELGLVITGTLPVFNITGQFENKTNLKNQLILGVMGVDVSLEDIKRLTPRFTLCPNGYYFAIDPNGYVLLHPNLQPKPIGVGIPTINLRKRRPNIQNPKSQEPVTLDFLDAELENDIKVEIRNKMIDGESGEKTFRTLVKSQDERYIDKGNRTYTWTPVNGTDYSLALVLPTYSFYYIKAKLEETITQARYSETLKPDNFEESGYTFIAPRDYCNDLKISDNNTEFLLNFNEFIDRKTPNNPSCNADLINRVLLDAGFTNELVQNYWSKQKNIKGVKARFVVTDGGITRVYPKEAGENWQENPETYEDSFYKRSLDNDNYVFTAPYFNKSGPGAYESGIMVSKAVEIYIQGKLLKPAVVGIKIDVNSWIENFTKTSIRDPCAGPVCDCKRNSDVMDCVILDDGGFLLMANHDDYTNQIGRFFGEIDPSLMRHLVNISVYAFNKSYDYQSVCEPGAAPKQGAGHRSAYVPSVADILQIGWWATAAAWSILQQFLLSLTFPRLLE
- Sequence (P54289 957-1103 partner limits assumed): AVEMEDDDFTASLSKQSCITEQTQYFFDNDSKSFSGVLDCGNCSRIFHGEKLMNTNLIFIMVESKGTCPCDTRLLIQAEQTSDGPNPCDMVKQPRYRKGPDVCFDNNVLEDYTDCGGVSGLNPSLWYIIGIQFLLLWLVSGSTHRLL
- assay.details: Automated electrophysiology assay (QPatch-HT whole-cell patch clamp)
- Format: cell-based
- conditions.used: 0.1 μM; high frequency (15th pulse of train, 5 Hz); read-out: QPatch at High Frequency % Inhibition
measurement.kind: inhibition at 0.1 µM (%)

Ask: Entry COc1ccccc1-n1nc2c(c1-c1ccc(Cl)cc1)CN(S(=O)(=O)c1c(C)noc1C)C2 has what inhibition at 0.1 µM?
Result: 49

1. COc1ccccc1-n1nc2c(c1-c1ccc(Cl)cc1)CN(S(=O)(=O)CCNS(C)(=O)=O)C2
2. COc1ccccc1-n1nc2c(c1-c1ccc(Cl)cc1)CN(S(=O)(=O)C(C)C)C2
3. COc1cc(Cl)ccc1-n1nc2c(c1-c1ccc(Cl)cc1)CN(S(=O)(=O)C(C)C)C2
Ask: Rank items: key inhibition at 0.1 µM, increasing. Sort and list the labels as requested.
Result: 1, 3, 2
(1: -5%, 3: 24%, 2: 47%)
